Parameter IC50, tested on tankyrase 2 (His6-TNKS2) (Homo sapiens, UniProt Q9H2K2), listed per item.
Sequence (Q9H2K2 934-1166): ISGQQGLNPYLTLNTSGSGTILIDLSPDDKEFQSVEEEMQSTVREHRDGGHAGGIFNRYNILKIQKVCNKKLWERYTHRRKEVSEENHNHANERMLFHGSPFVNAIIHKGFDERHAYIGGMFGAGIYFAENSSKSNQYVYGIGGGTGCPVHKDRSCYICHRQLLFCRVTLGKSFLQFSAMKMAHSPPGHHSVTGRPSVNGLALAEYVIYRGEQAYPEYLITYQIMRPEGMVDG
measured_endpoint: IC50 (nM)

{"compound": "O=c1[nH]c2c(c3ccccc13)CO[C@@H](C1CCCC1)C2 (single isomer, unassigned)", "IC50 / nM": 19.4}

I = CC(C)(C)C1Cc2[nH]c(=O)c3ccncc3c2CO1 (racemic)
II = CC1(C2Cc3[nH]c(=O)c4ccccc4c3CO2)CCCCC1 (racemic)
Prompt: In the pair I and II , the larger recorded IC50 belongs to which? Label of pick, please.
Response: I
(I: 183 nM, II: 30.5 nM)

====

Parameter IC50, tested on PARP1 (His6-PARP1, full length) (Homo sapiens), listed per item.
Sequence (P09874 whole entry, species assumed): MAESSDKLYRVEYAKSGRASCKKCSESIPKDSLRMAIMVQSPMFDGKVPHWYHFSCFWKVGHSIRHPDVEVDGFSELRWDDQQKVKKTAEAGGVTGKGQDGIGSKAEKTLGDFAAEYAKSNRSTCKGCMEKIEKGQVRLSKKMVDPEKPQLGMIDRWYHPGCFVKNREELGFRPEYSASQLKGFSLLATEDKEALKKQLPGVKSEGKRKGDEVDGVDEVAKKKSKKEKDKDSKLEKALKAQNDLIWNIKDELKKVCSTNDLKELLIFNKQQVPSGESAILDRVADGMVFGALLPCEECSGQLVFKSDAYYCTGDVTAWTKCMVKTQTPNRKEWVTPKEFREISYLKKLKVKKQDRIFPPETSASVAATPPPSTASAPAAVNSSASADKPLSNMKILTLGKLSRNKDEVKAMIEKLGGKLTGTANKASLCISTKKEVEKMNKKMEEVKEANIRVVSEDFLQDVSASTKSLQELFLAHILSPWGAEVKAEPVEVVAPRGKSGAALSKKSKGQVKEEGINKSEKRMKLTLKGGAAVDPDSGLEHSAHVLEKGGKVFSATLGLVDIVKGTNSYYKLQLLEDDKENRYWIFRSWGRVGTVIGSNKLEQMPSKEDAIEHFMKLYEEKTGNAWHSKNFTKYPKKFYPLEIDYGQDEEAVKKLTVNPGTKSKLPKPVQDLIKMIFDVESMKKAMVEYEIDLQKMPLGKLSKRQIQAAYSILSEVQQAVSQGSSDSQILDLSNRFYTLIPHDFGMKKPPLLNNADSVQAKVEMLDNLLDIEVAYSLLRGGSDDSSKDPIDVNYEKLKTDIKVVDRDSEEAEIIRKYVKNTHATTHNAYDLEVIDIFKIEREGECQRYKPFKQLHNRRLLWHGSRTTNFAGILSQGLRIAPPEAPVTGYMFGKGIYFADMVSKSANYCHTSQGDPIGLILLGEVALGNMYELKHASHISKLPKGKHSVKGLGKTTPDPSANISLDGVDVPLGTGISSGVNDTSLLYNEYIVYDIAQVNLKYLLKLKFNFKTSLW
Counter-ions that a name gives are not always drawn.
measured_endpoint: IC50 (nM)

For orientation, consider the following solved cases.
{"compound": "CS(=O)(=O)N1CCC(C2Cc3[nH]c(=O)c4ccccc4c3CO2)CC1 (racemic)", "units": "nM", "IC50": 98.7}
{"compound": "CC(C)C1Cc2[nH]c(=O)c3ccc(C4CC4)cc3c2CO1 (racemic)", "units": "nM", "IC50": 18700}
{"compound": "CC(C)C1Cc2[nH]c(=O)c3ccsc3c2CO1 (racemic)", "units": "nM", "IC50": 1920}
{"compound": "CC(C)(C)C1Cc2[nH]c(=O)c3sccc3c2CO1 (racemic)", "units": "nM", "IC50": 222}
{"compound": "O=c1[nH]c2c(c3ccccc13)COCC2", "units": "nM", "IC50": 281}
{"compound": "CC(C)OC(=O)N1CCC(C2Cc3[nH]c(=O)c4ccccc4c3CO2)CC1 (racemic)", "units": "nM", "IC50": 81.8}
{"compound": "O=c1[nH]c2c(c3ccccc13)COC(C1CCNC1)C2 (centres unmarked) [Compound I-36, hydrochloride]", "units": "nM", "IC50": 27.7}
{"compound": "Cc1ccc2c(=O)[nH]c3c(c2n1)COC(C(C)(C)C)C3 (racemic)", "units": "nM", "IC50": 3050}

P = O=c1[nH]c2c(c3ccccc13)COC(C1CCOCC1)C2 (racemic)
Q = O=c1[nH]c2c(c3ccccc13)COC1(CCCC1)C2
R = O=c1[nH]c2c(c3ccccc13)CO[C@H](C1CCCC1)C2 (single isomer, unassigned)
S = CC(C)(C)OC(=O)N1CCC(C2Cc3[nH]c(=O)c4cccnc4c3CO2)CC1 (centres unmarked)
Prompt: // ranking: key=IC50, reverse=True Output spec: labels arranged per the requested ranking.
Response: Q, S, P, R
